Hello, the source for this data is ChEMBL document CHEMBL1135887, in case you need it.

The entries below come with measured Log 1/M values attached.
target: Muscarinic acetylcholine receptor M3 (Homo sapiens) (UniProt P20309); experiment: Logarithm of affinity (log 1/M) at the muscarinic acetylcholine receptor M3 by using semiquantitative equilibrium and off-rate assay
Sequence (P20309 whole entry, looked up): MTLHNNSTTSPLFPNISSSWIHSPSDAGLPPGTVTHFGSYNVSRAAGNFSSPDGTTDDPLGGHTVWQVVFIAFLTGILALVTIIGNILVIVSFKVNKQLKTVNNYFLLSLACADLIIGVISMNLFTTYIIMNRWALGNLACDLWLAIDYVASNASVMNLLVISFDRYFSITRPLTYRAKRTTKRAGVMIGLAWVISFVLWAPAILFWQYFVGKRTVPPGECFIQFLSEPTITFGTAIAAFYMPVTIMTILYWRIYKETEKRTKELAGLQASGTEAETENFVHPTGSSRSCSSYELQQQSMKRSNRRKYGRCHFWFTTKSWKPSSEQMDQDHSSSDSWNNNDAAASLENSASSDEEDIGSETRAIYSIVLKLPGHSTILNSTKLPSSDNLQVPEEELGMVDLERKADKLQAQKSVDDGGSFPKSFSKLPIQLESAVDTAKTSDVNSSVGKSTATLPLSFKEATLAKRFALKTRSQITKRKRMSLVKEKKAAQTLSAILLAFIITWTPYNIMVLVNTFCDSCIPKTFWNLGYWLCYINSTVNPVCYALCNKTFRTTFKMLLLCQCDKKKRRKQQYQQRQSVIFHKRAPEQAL

Below, each entry is followed by its recorded Log 1/M result.
COc1cc2c3c4c(c(COC(C)=O)c5c3n(c2cc1OC)C(=O)CC5)CNCC4	5.69
O=C1CCc2cc3c(c4c5cc(O)ccc5n1c24)CNCC3	5.13
O=C1CCc2cc3c(c4c5cc6c(cc5n1c24)OCO6)CCNC3	5.61

Lookup: Recall the reported Log 1/M of `O=C1CCc2cc3c(c4c5cc(O)ccc5n1c24)CCNC3` on Muscarinic acetylcholine receptor M3 (Homo sapiens) (UniProt P20309) and write it down.
Found: 4.89

Lookup: Lab note: Muscarinic acetylcholine receptor M3 (Homo sapiens) (UniProt P20309) assay, enter Log 1/M for `O=C1CCc2cc3c(c4c5cc(CN6CCOCC6)ccc5n1c24)CCNC3` here
Found: 4.56

Lookup: Please tell me the measured Log 1/M for `O=C1CCc2cc3c(c4c5ccc(O)cc5n1c24)CCNC3` ; system: Muscarinic acetylcholine receptor M3 (Homo sapiens) (UniProt P20309).
Found: 5.23

Lookup: Look up Muscarinic acetylcholine receptor M3 (Homo sapiens) (UniProt P20309) data: Log 1/M of `O=C1CCc2cc3c(c4c5cccc(O)c5n1c24)CCNC3` , then report it.
Found: 5.06

Lookup: Recall the reported Log 1/M of `COc1cccc2c3c4c(cc5c3n(c12)C(=O)CC5)CNCC4` when tested on Muscarinic acetylcholine receptor M3 (Homo sapiens) (UniProt P20309).
Found: 5.06

Lookup: Recall the reported Log 1/M of `COC(=O)c1ccc2c(c1)c1c3c(cc4c1n2C(=O)CC4)CCNC3` when tested on Muscarinic acetylcholine receptor M3 (Homo sapiens) (UniProt P20309).
Found: 5.55

Lookup: // output Log 1/M; input `O=C1CCc2cc3c(c4c5ccc(O)cc5n1c24)CNCC3` ; system Muscarinic acetylcholine receptor M3 (Homo sapiens) (UniProt P20309)
Found: 5.6

Lookup: Report value only: Log 1/M, Muscarinic acetylcholine receptor M3 (Homo sapiens) (UniProt P20309), `COc1ccc2c(c1)c1c3c(cc4c1n2C(=O)CC4)CNCC3`
Found: 5.04

Lookup: # lookup: Muscarinic acetylcholine receptor M3 (Homo sapiens) (UniProt P20309) Log 1/M, key = `COc1ccc2c3c4c(cc5c3n(c2c1)C(=O)CC5)CCNC4`
Found: 5.14

Lookup: Print Muscarinic acetylcholine receptor M3 (Homo sapiens) (UniProt P20309) Log 1/M for `Cc1ccc2c(c1)c1c3c(cc4c1n2C(=O)CC4)CNCC3` .
Found: 5.71

Lookup: Report the value of Log 1/M obtained on Muscarinic acetylcholine receptor M3 (Homo sapiens) (UniProt P20309) for `COC(=O)c1ccc2c(c1)c1c3c(cc4c1n2C(=O)CC4)CNCC3` .
Found: 5.64

Lookup: Provide Log 1/M, tested on Muscarinic acetylcholine receptor M3 (Homo sapiens) (UniProt P20309), for `O=C(c1ccc2c(c1)c1c3c(cc4c1n2C(=O)CC4)CNCC3)N1CCOCC1` .
Found: 4.45

Lookup: Would you please give the reported Log 1/M of `CC1(C)CC(=O)n2c3ccccc3c3c4c(cc1c32)CCNC4` with Muscarinic acetylcholine receptor M3 (Homo sapiens) (UniProt P20309)?
Found: 4.86

Lookup: With Muscarinic acetylcholine receptor M3 (Homo sapiens) (UniProt P20309) as the test system, provide measured Log 1/M for this molecule: `COc1ccc2c3c4c(cc5c3n(c2c1)C(=O)CC5)CNCC4`
Found: 5.33

Lookup: Quote Muscarinic acetylcholine receptor M3 (Homo sapiens) (UniProt P20309) Log 1/M for entry `COc1cc2c(c(OC)c1OC)c1c3c(cc4c1n2C(=O)CC4)CNCC3` .
Found: 5.63
